Target: Androgen receptor (Homo sapiens, UniProt P10275)
Sequence (P10275 whole entry): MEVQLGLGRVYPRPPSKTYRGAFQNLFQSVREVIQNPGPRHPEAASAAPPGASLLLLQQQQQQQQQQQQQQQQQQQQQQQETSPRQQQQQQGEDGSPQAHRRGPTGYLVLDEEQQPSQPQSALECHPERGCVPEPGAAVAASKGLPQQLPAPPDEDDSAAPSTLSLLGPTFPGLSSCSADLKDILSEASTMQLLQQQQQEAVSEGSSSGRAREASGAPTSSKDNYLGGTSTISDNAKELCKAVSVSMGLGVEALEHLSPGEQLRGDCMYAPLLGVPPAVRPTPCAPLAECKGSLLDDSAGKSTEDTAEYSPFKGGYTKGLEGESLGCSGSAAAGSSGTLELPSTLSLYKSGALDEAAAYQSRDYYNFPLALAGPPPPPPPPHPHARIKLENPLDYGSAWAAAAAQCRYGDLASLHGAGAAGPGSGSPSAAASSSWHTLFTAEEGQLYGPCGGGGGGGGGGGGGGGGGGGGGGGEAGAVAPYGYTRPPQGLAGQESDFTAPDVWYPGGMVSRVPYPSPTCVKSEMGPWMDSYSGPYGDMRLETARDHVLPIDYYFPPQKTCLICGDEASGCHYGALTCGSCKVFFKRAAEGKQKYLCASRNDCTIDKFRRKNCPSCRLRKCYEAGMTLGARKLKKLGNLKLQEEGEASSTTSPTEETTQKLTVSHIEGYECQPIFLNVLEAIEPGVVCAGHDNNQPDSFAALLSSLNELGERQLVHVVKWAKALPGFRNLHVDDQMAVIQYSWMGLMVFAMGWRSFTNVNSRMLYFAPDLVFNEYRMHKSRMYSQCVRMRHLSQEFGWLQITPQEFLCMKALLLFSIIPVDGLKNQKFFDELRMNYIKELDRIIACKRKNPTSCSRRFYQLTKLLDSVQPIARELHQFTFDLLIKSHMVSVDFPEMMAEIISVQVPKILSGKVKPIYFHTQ
pIC50: −log10 of the molar value.
Decide by pIC50: equal to or exceeding 7 means TRUE, less means FALSE.

>>> df
                                 chemsmiles                             assayedtarget  answerlabel
0  CC1(C)C(=O)N(c2ccc(C#N)c(C(F)(F)F)c2)C(=S)N1c1ccc(C(=O)Nc2ccccc2N)c(F)c1  Androgen receptor (Homo sapiens, UniProt P10275)        FALSE
1  CC1(C)C(=O)N(c2ccc(C#N)c(C(F)(F)F)c2)C(=S)N1c1ccc(/C=C/C(=O)Nc2ccccc2N)c(F)c1  Androgen receptor (Homo sapiens, UniProt P10275)        FALSE

Say whether "CC1(C)C(=O)N(c2ccc(C#N)c(C(F)(F)F)c2)C(=S)N1c1ccc(C(=O)NCCCNS(N)(=O)=O)c(F)c1" shows pIC50 of 7 or more. FALSE

And the next one, "CC1(C)C(=O)N(c2ccc(C#N)c(C(F)(F)F)c2)C(=S)N1c1ccc(C(=O)NCCCCCCn2cccc(O)c2=S)c(F)c1" ? TRUE

And the next one, "CC1(C)C(=O)N(c2ccc(C#N)c(C(F)(F)F)c2)C(=S)N1c1ccc(C(=O)NCCCCCC(=O)NO)c(F)c1" ? TRUE

And the next one, "CC1(C)C(=O)N(c2ccc(C#N)c(C(F)(F)F)c2)C(=S)N1c1ccc(C(=O)NCCCCCCC(=O)Nc2ccccc2N)c(F)c1" ? TRUE

And the next one, "CC1(C)C(=O)N(c2ccc(C#N)c(C(F)(F)F)c2)C(=S)N1c1ccc(Cn2ccc3cc(/C=C/C(=O)NO)ccc32)c(F)c1" ? TRUE

And the next one, "CC1(C)C(=O)N(c2ccc(C#N)c(C(F)(F)F)c2)C(=S)N1c1ccc(C(=O)OCCCCCC(=O)NO)c(F)c1" ? TRUE

###

experiment: Metabolic stability in human liver microsomes assessed as compound remaining at 1 uM measured after 30 mins in presence of NADPH by LC-MS/MS analysis; assay type: ADME; details: read-out: Stability
property: remaining at 0.5 h, 1 µM (%)
Numbers only, in %.

Look at this compound and give its reported remaining at 0.5 h, 1 µM. "CC1(C)C(=O)N(c2ccc(C#N)c(C(F)(F)F)c2)C(=S)N1c1ccc(C(=O)NCCCCCC(=O)NO)c(F)c1" 29.1

###

assay: Tmax in mouse at 10 mg/kg, sc by HPLC-MS analysis; assay type: ADME, organism-based; settings: in vivo
property: Tmax

Look at this molecule and give its reported Tmax. "CC1(C)C(=O)N(c2ccc(C#N)c(C(F)(F)F)c2)C(=S)N1c1ccc(C(=O)NCCCCCC(=O)NO)c(F)c1" 30 min

###

assay: Cmax in mouse at 10 mg/kg, ip by HPLC-MS analysis; assay type: ADME, organism-based; parameters: dose 10 mg/kg, route intraperitoneal; settings: in vivo
property: Cmax (nM)
Give bare numbers, in nM.

Look at this compound and give its reported Cmax. "CC1(C)C(=O)N(c2ccc(C#N)c(C(F)(F)F)c2)C(=S)N1c1ccc(C(=O)NCCCCCC(=O)NO)c(F)c1" 419

###

The reader will find IC50 measurements below, all made with Histone deacetylase 3 (Homo sapiens).
Sequence (O15379 whole entry): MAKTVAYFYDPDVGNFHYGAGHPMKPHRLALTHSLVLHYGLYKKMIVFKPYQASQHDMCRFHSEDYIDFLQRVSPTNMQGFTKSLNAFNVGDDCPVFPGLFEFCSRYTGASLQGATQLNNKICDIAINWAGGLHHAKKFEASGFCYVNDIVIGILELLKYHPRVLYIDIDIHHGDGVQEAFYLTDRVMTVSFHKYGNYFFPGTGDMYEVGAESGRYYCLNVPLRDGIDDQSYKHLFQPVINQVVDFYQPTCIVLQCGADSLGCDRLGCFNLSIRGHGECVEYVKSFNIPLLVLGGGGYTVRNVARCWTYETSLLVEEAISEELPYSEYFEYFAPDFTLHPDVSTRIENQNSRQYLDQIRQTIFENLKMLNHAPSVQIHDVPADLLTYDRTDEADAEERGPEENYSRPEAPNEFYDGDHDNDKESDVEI
Give bare numbers, in nM.

Solved entries:
                                 chemsmiles  property  testvalue
0  CC1(C)C(=O)N(c2ccc(C#N)c(C(F)(F)F)c2)C(=S)N1c1ccc(C(=O)NCCCCCC(=O)NO)c(F)c1      IC50       1830
1  CC1(C)C(=O)N(c2ccc(C#N)c(C(F)(F)F)c2)C(=S)N1c1ccc(C(=O)Nc2ccccc2N)c(F)c1      IC50       5400

Shifting focus to the compound that follows.
// map "CC1(C)C(=O)N(c2ccc(C#N)c(C(F)(F)F)c2)C(=S)N1c1ccc(C(=O)OCCCCCC(=O)NO)c(F)c1" to recorded IC50 (system: Histone deacetylase 3 (Homo sapiens)) 2000

###

assay: Terminal half life in mouse at 10 mg/kg, ip by HPLC-MS analysis; type: ADME, organism-based; details: in vivo, read-out: beta t1/2 (converted)
property: half-life
Quote the value and follow it with the unit of measurement.

Look at this molecule and give its reported half-life. "CC1(C)C(=O)N(c2ccc(C#N)c(C(F)(F)F)c2)C(=S)N1c1ccc(C(=O)NCCCCCC(=O)NO)c(F)c1" 11 h

###

experiment: Cmax in mouse at 2 mg/kg, iv by HPLC-MS analysis; type: ADME, organism-based; design: dose 2 mg/kg, route intravenous; conditions: in vivo
property: Cmax (nM)
Give bare numbers, in nM.

Look at this molecule and give its reported Cmax. "CC1(C)C(=O)N(c2ccc(C#N)c(C(F)(F)F)c2)C(=S)N1c1ccc(C(=O)NCCCCCC(=O)NO)c(F)c1" 706

###

system: UGT; experiment: Metabolic stability in mouse liver microsomes assessed as UGT-mediated glucuronidation of compound by measuring parent compound remaining at 5 uM after 30 mins in presence of UDPGA by LC-MS/MS analysis; type: ADME; details: read-out: Stability
property: remaining at 0.5 h, 5 µM

Look at this compound and give its reported remaining at 0.5 h, 5 µM. "CC1(C)C(=O)N(c2ccc(C#N)c(C(F)(F)F)c2)C(=S)N1c1ccc(C(=O)NCCCCCC(=O)NO)c(F)c1" 46.1%

###

assay: AUClast in mouse at 10 mg/kg, ip by HPLC-MS analysis; assay type: ADME, organism-based; set-up: dose 10 mg/kg, time 0 - last, route intraperitoneal; conditions: in vivo
property: AUC(0-t) (nM·h)
Give bare numbers, in nM·h.

Look at this molecule and give its reported AUC(0-t). "CC1(C)C(=O)N(c2ccc(C#N)c(C(F)(F)F)c2)C(=S)N1c1ccc(C(=O)NCCCCCC(=O)NO)c(F)c1" 846

###

assay: Apparent volume of distribution in mouse at 2 mg/kg, iv by HPLC-MS analysis; type: ADME, organism-based; conditions: in vivo, read-out: Vz
property: Vd (L/kg)
Give bare numbers, in L/kg.

Look at this molecule and give its reported Vd. "CC1(C)C(=O)N(c2ccc(C#N)c(C(F)(F)F)c2)C(=S)N1c1ccc(C(=O)NCCCCCC(=O)NO)c(F)c1" 10.3

###

assay: Bioavailability in mouse at 10 mg/kg, ip by HPLC-MS analysis; assay type: ADME, organism-based; settings: in vivo
property: bioavailability (%)
One number for each entry, in %.

Look at this compound and give its reported bioavailability. "CC1(C)C(=O)N(c2ccc(C#N)c(C(F)(F)F)c2)C(=S)N1c1ccc(C(=O)NCCCCCC(=O)NO)c(F)c1" 82.1

###

The reader will find pIC50 measurements below, all made with UniProt O15379.
pIC50: −log10 of the molar value.

For every item below, please supply its pIC50.
1. CC1(C)C(=O)N(c2ccc(C#N)c(C(F)(F)F)c2)C(=S)N1c1ccc(C(=O)NCCOCCC(=O)NO)c(F)c1
2. CC1(C)C(=O)N(c2ccc(C#N)c(C(F)(F)F)c2)C(=S)N1c1ccc(C(=O)NCCCCCCNS(N)(=O)=O)c(F)c1
3. CC1(C)C(=O)N(c2ccc(C#N)c(C(F)(F)F)c2)C(=S)N1c1ccc(Cn2ccc3cc(/C=C/C(=O)NO)ccc32)c(F)c1
4. CC1(C)C(=O)N(c2ccc(C#N)c(C(F)(F)F)c2)C(=S)N1c1ccc(C(=O)NCCCNS(N)(=O)=O)c(F)c1

[4.31, "< 4.00", "< 4.00", "< 4.00"]

For every item below, please supply its pIC50.
1. CC1(C)C(=O)N(c2ccc(C#N)c(C(F)(F)F)c2)C(=S)N1c1ccc(/C=C/C(=O)Nc2ccccc2N)c(F)c1
2. CC1(C)C(=O)N(c2ccc(C#N)c(C(F)(F)F)c2)C(=S)N1c1ccc(C(=O)NCCCCCCn2cccc(O)c2=O)c(F)c1
3. CC1(C)C(=O)N(c2ccc(C#N)c(C(F)(F)F)c2)C(=S)N1c1ccc(C(=O)NCCCn2cccc(O)c2=O)c(F)c1

4.69
< 4.00
< 4.00

Values compiled from ChEMBL document CHEMBL3862016.
